# Organism: Mus musculus
# Assay explanation: Effective dose against NMDA-induced lethality in male Swiss-albino mice
# Format: ADME, organism-based
# Measurement setup: in vivo
Reported ED50 is given for each of the following compounds.
Property name: ED50

Structure string | Measured
Nc1c(NCCCP(=O)(O)O)c(=O)c1=O | > 100 mg/kg
Nc1c(NCCP(=O)(O)O)c(=O)c1=O | 29 mg/kg
Nc1c(NCCCCP(=O)(O)O)c(=O)c1=O | > 30 mg/kg
Nc1c(NCP(=O)(O)O)c(=O)c1=O | > 100 mg/kg

---

Below: a set of entries, each annotated with reported IC50.
# Measured on: Glutamate NMDA receptor
# Assay explanation: The compound was tested for its affinity against N-methyl-D-aspartate glutamate receptor in rats using [3H]CPP as radioligand
Property name: IC50 (µM)

Structure string | Property name | Units text | Limit operator | Measured
Nc1c(NCCCP(=O)(O)O)c(=O)c1=O | IC50 | µM | = | 2.6
Nc1c(NCCP(=O)(O)O)c(=O)c1=O | IC50 | µM | = | 0.47
Nc1c(NCP(=O)(O)O)c(=O)c1=O | IC50 | µM | > | 10
CN(CCP(=O)(O)O)c1c(N)c(=O)c1=O | IC50 | µM | = | 1
